tested on: T-47D breast; experiment: NCI-60 one-dose screen, 48 h; details: 10 µM unless noted
About 83,000 compounds went through this panel and 20% of them were active in at least one assay; those are over-represented in the sample as a whole. Calls of active or inactive are those of the source. How the source made its calls: active means growth percent below 10; inactive means the rest.
Select the correct class. Options are active, inactive and nothing else.

A selection of reference data follows.
Compound | Assigned Category
C=C1C(=O)O[C@H]2[C@H]1CC/C(COC(=O)NCC(C)c1ccc(CC(C)C)cc1)=C\CC[C@@]1(C)O[C@@H]21 (stereo partly drawn) | active
Cc1ccc(C(=O)/C(=C/c2ccc([N+](=O)[O-])cc2)SCc2ccc(Cl)cc2)cc1 | inactive
CCNC(=O)Oc1ccc(/C(=C(\C)c2ccccc2)c2ccc(OCCN(CC)CC)cc2)cc1 | inactive
COc1ccc2c(c1)oc1c(C)c3c(c(C)c12)C(=O)N(CCN1CCOCC1)C3=O | inactive
CCNc1nc2cc(Nc3ccnc4cc(Cl)ccc34)ccc2o1 | inactive

Continue with the compound presented below.
Assay result, entry CC1(C)CC[C@]23CC[C@]4(C)[C@H](CC[C@@H]5[C@@]6(C)CCCNC(C)(C)[C@@H]6CC[C@]54C)[C@H]2[C@H]1OC3 — outcome?
active

Every entry's value here was drawn from PubChem BioAssay (NCI).
